# assay-summary: A CellTox Green Cytotoxicity Assay to monitor cytotoxicity in HEK293 cells - 40 hour (AID 1224871); note: nearly all actives have a fitted effect of over 45% in size
# condition-context: CellTox Green fluorescence; series mostly up to 76.8 µM
Inconclusive results are not listed. Activity calls are given as the source filed them. Calls come from the whole dose curve; as a rule, active = well fitted activation curve with a large enough effect in the repeat runs; inconclusive = weak or mixed curves; inactive = flat fitted curve, though single readings scatter.
Tick one outcome: active, inactive

{"columns": ["molecule", "answer-label"],
 "data": [
  ["CC(=[OH+])/C=C(/C)[O-].CC(=[OH+])/C=C(\\C)[O-].CC(=[OH+])/C=C(\\C)[O-].[Al]", "inactive"],
  ["CCOc1cc(C(C)(C)C)ccc1C1COC(c2c(F)cccc2F)=N1 (stereo not drawn)", "inactive"]
]}

*Q* I'd appreciate the recorded outcome for "CCCCCCCCCBr" from this test.
*A* inactive

*Q* I'd appreciate the recorded outcome for "CC(C)OS(C)(=O)=O" from this test.
*A* inactive

*Q* I'd appreciate the recorded outcome for "ClC1=C(Cl)[C@]2(Cl)[C@@H]3[C@@H]4C[C@@H]([C@H]5O[C@@H]45)[C@@H]3[C@@]1(Cl)C2(Cl)Cl" from this test.
*A* active

*Q* I'd appreciate the recorded outcome for "CC(=O)c1cc(C(C)(C)C)cc2c1CCC2(C)C" from this test.
*A* active

*Q* I'd appreciate the recorded outcome for "ClC(Cl)=C(Cl)Cl" from this test.
*A* inactive

*Q* I'd appreciate the recorded outcome for "C=COCCCl" from this test.
*A* inactive

====

# assay-summary: qHTS assay to identify small molecule antagonists of the peroxisome proliferator-activated receptor delta (PPARd) signaling pathway - cell viability counter screen (AID 743213); note: nearly all actives have a fitted effect of over 50% in size
# condition-context: PPARd-bla HEK293H viability, CellTiter-Glo luminescence, 17 h; series mostly up to 62 µM
Results filed as inconclusive are left out. Active and inactive are the calls of the source. Calls follow the shape of the dose curve; as a rule, active = well fitted cell-killing curve with a large enough effect in the repeat runs; inconclusive = weak or mixed curves; inactive = no such curve, though single readings can be large or run the other way.
Tick one outcome: active, inactive

Use these answered entries as a reference point.
{"columns": ["molecule", "answer-label"],
 "data": [
  ["CCOCCOC(C)=O", "inactive"],
  ["BrCBr", "inactive"],
  ["N#CCCSCCC#N", "inactive"],
  ["CN(C)CCc1c[nH]c2ccc(O)cc12", "inactive"]
]}

*Q* I'd appreciate the recorded outcome for "ClCc1ccc(Cl)cc1Cl" from this test.
*A* inactive

*Q* I'd appreciate the recorded outcome for "C=CC(=O)OCCCCOC(=O)C=C" from this test.
*A* active

*Q* I'd appreciate the recorded outcome for "S=C(SSC(=S)N1CCCCC1)N1CCCCC1" from this test.
*A* active

*Q* I'd appreciate the recorded outcome for O=C(O)C1C2CCC(O2)C1C(=O)O (stereo unspecified) from this test.
*A* inactive

*Q* I'd appreciate the recorded outcome for "CCCCCCCCCCCCBr" from this test.
*A* inactive

*Q* I'd appreciate the recorded outcome for "Fc1ccc(Oc2ccnc3cc(Cl)cc(Cl)c23)cc1" from this test.
*A* inactive

*Q* I'd appreciate the recorded outcome for "CCCCN(CCCC)C(=S)[S-].CCCCN(CCCC)C(=S)[S-].[Zn+2]" from this test.
*A* active

*Q* I'd appreciate the recorded outcome for "O=C(CCl)Nc1ccccc1" from this test.
*A* inactive

*Q* I'd appreciate the recorded outcome for CC1(C)C(/C=C(\Cl)C(F)(F)F)C1C(=O)OC(C#N)c1cccc(Oc2ccccc2)c1 (stereo unspecified) from this test.
*A* inactive

*Q* I'd appreciate the recorded outcome for "Clc1ccc(-c2ccc(Cl)c(Cl)c2Cl)c(Cl)c1Cl" from this test.
*A* inactive

*Q* I'd appreciate the recorded outcome for "Oc1ccc(C2(c3ccc(O)cc3)CCCCC2)cc1" from this test.
*A* active

*Q* I'd appreciate the recorded outcome for "CN(C)C(=S)[S-].CN(C)C(=S)[S-].[Cu+2]" from this test.
*A* active

*Q* I'd appreciate the recorded outcome for "O=C(CBr)c1ccc(O)cc1" from this test.
*A* inactive

*Q* I'd appreciate the recorded outcome for "CC(=O)c1cc(C(C)(C)C)cc2c1CCC2(C)C" from this test.
*A* inactive

*Q* I'd appreciate the recorded outcome for "Nc1ccccc1C(=O)OC/C=C/c1ccccc1" from this test.
*A* inactive

*Q* I'd appreciate the recorded outcome for "CN(C)c1ccc(N=Nc2ccccc2)cc1" from this test.
*A* inactive

*Q* I'd appreciate the recorded outcome for "CC(C)(O)c1cnn2c(-c3ccc(F)c(-c4c(F)cccc4C#N)c3)cnc2n1" from this test.
*A* inactive

*Q* I'd appreciate the recorded outcome for "Cc1cc(C(C)(C)c2cc(C)c(O)c(C)c2)cc(C)c1O" from this test.
*A* active

*Q* I'd appreciate the recorded outcome for "CCN(CC)c1c([N+](=O)[O-])cc(C(F)(F)F)c(N)c1[N+](=O)[O-]" from this test.
*A* inactive

*Q* I'd appreciate the recorded outcome for "O=[N+]([O-])c1ccc2ccc3cccc4ccc1c2c34" from this test.
*A* inactive

*Q* I'd appreciate the recorded outcome for "CC(=O)O[C@H]1CC[C@@]2(C)C(=CC[C@@H]3[C@@H]2CC[C@]2(C)C(=O)CC[C@@H]32)C1" from this test.
*A* inactive
